Reference source for all entries: the supplement of paper PMC12494721

Please provide measured growth for the entries that follow.
Tested on: Klebsiella aerogenes DSM 30053
assay_text: growth (OD595) fold change vs plate DMSO controls (fold change (ratio)); higher = more growth
condition_summary: incubation time: 27 h, anaerobic, 37 °C
Structures can show the parent of a compound that is named as a salt.
Give bare numbers.

Example compounds with recorded growth:
> print(dat)
                                   compound                     measured.on  metric  recorded.result
1  Nc1ccc(S(=O)(=O)Nc2ccnn2-c2ccccc2)cc1 [Sulfaphenazole] (20 µM)  Klebsiella aerogenes DSM 30053  growth             1.04
2  Cn1cc(C(=O)[C@@H]2CCc3[nH]cnc3C2)c2ccccc21 [Ramosetron hydrochloride] (20 µM)  Klebsiella aerogenes DSM 30053  growth                1
3  CN[C@@H]1CCc2[nH]c3ccc(C(N)=O)cc3c2C1 [Frovatriptan succinate] (20 µM)  Klebsiella aerogenes DSM 30053  growth            0.991

Batch of 3 compounds: report growth for each.
1. CCOC(=O)c1c(N)sc2c1CCN(Cc1ccccc1)C2 [Tinoridine hydrochloride] (20 µM)
2. CCN(CC)CCOc1ccc(C(=C(Cl)c2ccccc2)c2ccccc2)cc1 [(Z,E) Clomiphene citrate] (20 µM)
3. CC(C)N1CCN(c2ccc(OCC3COC(Cn4cncn4)(c4ccc(Cl)cc4Cl)O3)cc2)CC1 (stereo not drawn) [Terconazole] (20 µM)

(A)
[0.967, 1.02, 1.01]

Please go through the list and note growth for each compound.
1. CCN(Cc1ccncc1)C(=O)C(CO)c1ccccc1 (stereo not drawn) [Tropicamide] (20 µM)
2. CCn1cc(C(=O)O)c(=O)c2cc(F)c(N3CCNCC3)nc21 [Enoxacin] (20 µM)

(A)
1: 1.04; 2: 0.246

* * *

System: Klebsiella aerogenes DSM 30053
assay_text: fold change of Cadaverine concentration vs plate DMSO controls (fold change (ratio)); higher = more amine produced, active = hit call of the paper (significant change in both replicates, either direction)
condition_summary: incubation time: 27 h, anaerobic, 37 °C
Counter-ions that a name gives are not always drawn.
For each of the compounds below, state its fold change of Cadaverine concentration.

> print(dat)
                                   compound                                   metric   recorded.result
1  CC(C)Oc1ccc2c(=O)c(-c3ccccc3)coc2c1 [Ipriflavone] (20 µM)  fold change of Cadaverine concentration  0.989 (inactive)
2  O=S(=O)(c1cccc2cnccc12)N1CCCNCC1 [Fasudil Hydrochloride] (20 µM)  fold change of Cadaverine concentration   1.01 (inactive)
3  CCCCCN(C)CCC(O)(P(=O)(O)O)P(=O)(O)O [Ibandronate sodium] (20 µM)  fold change of Cadaverine concentration  0.994 (inactive)

Batch request: fold change of Cadaverine concentration per item, same order as input.
1. N[C@@H](Cc1cc(I)c(Oc2cc(I)c(O)c(I)c2)c(I)c1)C(=O)O [(L) Thyroxine] (20 µM)
2. Nc1nc(=O)c2nc(CNc3ccc(C(=O)N[C@@H](CCC(=O)O)C(=O)O)cc3)cnc2[nH]1 [Folic acid] (20 µM)
3. CC(NN)c1ccccc1 (centres undefined) [Mebanazine] (20 µM)

(A)
["1.01 (inactive)", "1.01 (inactive)", "0.998 (inactive)"]
